Biological target: SARS-CoV spike on rVSV-deltaG-Luc pseudovirus (SARS-CoV, UniProt P59594 14-1236)
Test: cell-based or functional assay

binder	pseudovirus neutralization IC50 [nM]
19C10 VHH-Fc (Fc fusion) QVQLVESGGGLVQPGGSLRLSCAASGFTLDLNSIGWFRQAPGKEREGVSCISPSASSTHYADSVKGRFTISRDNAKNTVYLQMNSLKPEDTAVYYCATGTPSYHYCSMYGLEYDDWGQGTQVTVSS	0.45
13C8 VHH-Fc (Fc fusion) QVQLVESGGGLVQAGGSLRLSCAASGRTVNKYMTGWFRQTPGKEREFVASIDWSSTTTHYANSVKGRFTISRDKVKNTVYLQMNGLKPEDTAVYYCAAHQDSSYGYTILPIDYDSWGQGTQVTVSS	4.98
1A11 VHH-Fc (Fc fusion) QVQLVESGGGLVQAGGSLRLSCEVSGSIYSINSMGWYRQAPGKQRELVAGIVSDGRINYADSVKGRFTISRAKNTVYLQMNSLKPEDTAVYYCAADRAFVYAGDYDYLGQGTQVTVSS	0.18
3D4 VHH-Fc (Fc fusion) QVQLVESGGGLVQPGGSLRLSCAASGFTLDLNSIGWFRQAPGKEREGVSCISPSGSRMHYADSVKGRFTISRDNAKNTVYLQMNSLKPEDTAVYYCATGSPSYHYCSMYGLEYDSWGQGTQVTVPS	0.4
